The measured values listed here are drawn from patent US20220017468A1.

# test-protocol: metabolic stability in liver microsomes, dog
# Format: in vitro ADME
# reported-conditions: dog, microsomes
measured-property: half-life at 0.5 μM (min)
Numeric only. Scale: min

Req: So what's the measured half-life at 0.5 μM for this one? CC(C)c1c(O)cc(-c2cc3ccccc3cn2)cc1O
Resp: 32.1

* * *

# test-protocol: plasma protein binding by Rapid Equilibrium Dialysis, human
# Type: in vitro ADME
# reported-conditions: human, plasma, read-out: % Unbound Mean (% CV)
# Text: The blood-to-plasma ratios were similar across species (1.22-1.36, Table 9).
measured-property: fraction unbound at 2 μM
Output spec: single numeric token, no unit.

Req: So what's the measured fraction unbound at 2 μM for this one? CC(C)c1c(O)cc(-c2cc3ccccc3cn2)cc1O
Resp: 0.0108

* * *

# test-protocol: metabolic stability in hepatocytes, human
# Assay type: in vitro ADME
# reported-conditions: read-out: Scaled CLint, hep
measured-property: CLint scaled at 0.5 μM

Req: So what's the measured CLint scaled at 0.5 μM for this one? CC(C)c1c(O)cc(-c2cc3ccccc3cn2)cc1O
Resp: 23 L/h/kg

* * *

# test-protocol: blood-to-plasma ratio and blood cell association, rat
# Type: in vitro ADME
# reported-conditions: blood, read-out: Blood-to-plasma Ratio Replicate
measured-property: blood plasma ratio at 1 μM
Output spec: single numeric token, no unit.

Req: So what's the measured blood plasma ratio at 1 μM for this one? CC(C)c1c(O)cc(-c2cc3ccccc3cn2)cc1O
Resp: 1.31

* * *

# test-protocol: metabolic stability in liver microsomes, mouse
# Assay type: in vitro ADME
# reported-conditions: mouse, microsomes
measured-property: half-life at 0.5 μM (min)
Numeric only. Scale: min

Req: So what's the measured half-life at 0.5 μM for this one? CC(C)c1c(O)cc(-c2cc3ccccc3cn2)cc1O
Resp: 2.84

* * *

# test-protocol: metabolic stability in liver microsomes, mouse
# Format: in vitro ADME
# reported-conditions: mouse liver microsomes, 0.5 μM; read-out: Scaled CLint, mic
measured-property: CLint scaled at 0.5 μM (mL/min/kg)
Numeric only. Scale: mL/min/kg

Req: So what's the measured CLint scaled at 0.5 μM for this one? CC(C)c1c(O)cc(-c2cc3ccccc3cn2)cc1O
Resp: 1190

* * *

# Test system: human primary keratinocytes
# test-protocol: keratinocyte viability
# Assay type: cell-based
# reported-conditions: 48 h, two days
measured-property: IC50 (µM)
Numeric only. Scale: µM

Req: So what's the measured IC50 for this one? CC(C)c1c(O)cc(-c2cc3ccccc3cn2)cc1O
Resp: 12.4

* * *

# test-protocol: plasma protein binding by Rapid Equilibrium Dialysis, rat
# Format: in vitro ADME
# reported-conditions: rat, plasma, read-out: Mean % Bound (converted)
measured-property: fraction unbound at 4 h, 2 μM
Output spec: single numeric token, no unit.

Req: So what's the measured fraction unbound at 4 h, 2 μM for this one? CC(C)c1c(O)cc(-c2cc3ccccc3cn2)cc1O
Resp: 0.031

* * *

# test-protocol: plasma protein binding by Rapid Equilibrium Dialysis, minipig
# Format: in vitro ADME
# reported-conditions: minipig, plasma, read-out: % Unbound Replicate
# Source text: The blood-to-plasma ratios were similar across species (1.22-1.36, Table 9).
measured-property: fraction unbound at 4 h, 2 μM
Output spec: single numeric token, no unit.

Req: So what's the measured fraction unbound at 4 h, 2 μM for this one? CC(C)c1c(O)cc(-c2cc3ccccc3cn2)cc1O
Resp: 0.0187

* * *

# test-protocol: bioavailability after a single oral dose, minipig
# Format: in vivo
# reported-conditions: plasma, single 5 mg/kg oral dose, DMSO: Kolliphore HS15: hydroxypropyl-β-cyclodextrin (10:10:80)
measured-property: bioavailability (%)
Numeric only. Scale: %

Req: So what's the measured bioavailability for this one? CC(C)c1c(O)cc(-c2cc3ccccc3cn2)cc1O
Resp: 0.1

* * *

# test-protocol: blood-to-plasma ratio and blood cell association, human
# Assay type: in vitro ADME
# reported-conditions: blood, read-out: Blood-to-plasma Ratio Replicate
measured-property: blood plasma ratio at 1 μM
Output spec: single numeric token, no unit.

Req: So what's the measured blood plasma ratio at 1 μM for this one? CC(C)c1c(O)cc(-c2cc3ccccc3cn2)cc1O
Resp: 1.21

* * *

# test-protocol: metabolic stability in liver microsomes, rat
# Type: in vitro ADME
# reported-conditions: rat liver microsomes, 0.5 μM; read-out: Scaled CLint, mic
measured-property: CLint scaled at 0.5 μM

Req: So what's the measured CLint scaled at 0.5 μM for this one? CC(C)c1c(O)cc(-c2cc3ccccc3cn2)cc1O
Resp: 224 mL/min/kg

* * *

# test-protocol: pharmacokinetics after a single intravenous dose, minipig
# Type: in vivo
# reported-conditions: plasma, 1 mg/kg intravenous, mean
measured-property: half-life
Be sure to follow the number with its unit.

Req: So what's the measured half-life for this one? CC(C)c1c(O)cc(-c2cc3ccccc3cn2)cc1O
Resp: 1.02 h

* * *

# test-protocol: skin binding in human skin homogenate
# Format: in vitro ADME
# reported-conditions: whole human skin homogenate; 25, 50 and 100 ng/mL
measured-property: fraction unbound
Output spec: single numeric token, no unit.

Req: So what's the measured fraction unbound for this one? CC(C)c1c(O)cc(-c2cc3ccccc3cn2)cc1O
Resp: 0.219

* * *

# Test system: IL-17A
# test-protocol: CD4+ T cell IL17 assay
# Format: cell-based, human
# reported-conditions: T-cell; primary human peripheral blood CD4+ T-cells; read-out: IL-17A inhibition IC50
measured-property: pIC50
// pIC50 here means minus log10 of the molar concentration (mol/L)

Req: So what's the measured pIC50 for this one? CC(C)c1c(O)cc(-c2cc3ccccc3cn2)cc1O
Resp: 6.85

* * *

# test-protocol: blood-to-plasma ratio and blood cell association, rat
# Assay type: in vitro ADME
# reported-conditions: blood, read-out: Blood-to-plasma Ratio Mean (% CV)
measured-property: blood plasma ratio at 1 μM
Output spec: single numeric token, no unit.

Req: So what's the measured blood plasma ratio at 1 μM for this one? CC(C)c1c(O)cc(-c2cc3ccccc3cn2)cc1O
Resp: 1.36

* * *

# test-protocol: metabolic stability in hepatocytes, minipig
# Type: in vitro ADME
# reported-conditions: minipig hepatocytes, 0.5 μM
measured-property: half-life at 0.5 μM (min)
Numeric only. Scale: min

Req: So what's the measured half-life at 0.5 μM for this one? CC(C)c1c(O)cc(-c2cc3ccccc3cn2)cc1O
Resp: 26.5

* * *

# test-protocol: metabolic stability in hepatocytes, rabbit
# Type: in vitro ADME
measured-property: half-life at 0.5 μM
Be sure to follow the number with its unit.

Req: So what's the measured half-life at 0.5 μM for this one? CC(C)c1c(O)cc(-c2cc3ccccc3cn2)cc1O
Resp: 21.3 min

* * *

# test-protocol: metabolic stability in liver microsomes, human
# Format: in vitro ADME
# reported-conditions: human, microsomes
measured-property: half-life at 0.5 μM (min)
Numeric only. Scale: min

Req: So what's the measured half-life at 0.5 μM for this one? CC(C)c1c(O)cc(-c2cc3ccccc3cn2)cc1O
Resp: 40.9

* * *

# test-system: AhR (Homo sapiens, UniProt P35869)
# Construct: LS-180 cells stably transfected with a CYP1A1 promoter-linked beta-lactamase gene reporter construct; endogenous in cells
# Sequence (P35869 11-848): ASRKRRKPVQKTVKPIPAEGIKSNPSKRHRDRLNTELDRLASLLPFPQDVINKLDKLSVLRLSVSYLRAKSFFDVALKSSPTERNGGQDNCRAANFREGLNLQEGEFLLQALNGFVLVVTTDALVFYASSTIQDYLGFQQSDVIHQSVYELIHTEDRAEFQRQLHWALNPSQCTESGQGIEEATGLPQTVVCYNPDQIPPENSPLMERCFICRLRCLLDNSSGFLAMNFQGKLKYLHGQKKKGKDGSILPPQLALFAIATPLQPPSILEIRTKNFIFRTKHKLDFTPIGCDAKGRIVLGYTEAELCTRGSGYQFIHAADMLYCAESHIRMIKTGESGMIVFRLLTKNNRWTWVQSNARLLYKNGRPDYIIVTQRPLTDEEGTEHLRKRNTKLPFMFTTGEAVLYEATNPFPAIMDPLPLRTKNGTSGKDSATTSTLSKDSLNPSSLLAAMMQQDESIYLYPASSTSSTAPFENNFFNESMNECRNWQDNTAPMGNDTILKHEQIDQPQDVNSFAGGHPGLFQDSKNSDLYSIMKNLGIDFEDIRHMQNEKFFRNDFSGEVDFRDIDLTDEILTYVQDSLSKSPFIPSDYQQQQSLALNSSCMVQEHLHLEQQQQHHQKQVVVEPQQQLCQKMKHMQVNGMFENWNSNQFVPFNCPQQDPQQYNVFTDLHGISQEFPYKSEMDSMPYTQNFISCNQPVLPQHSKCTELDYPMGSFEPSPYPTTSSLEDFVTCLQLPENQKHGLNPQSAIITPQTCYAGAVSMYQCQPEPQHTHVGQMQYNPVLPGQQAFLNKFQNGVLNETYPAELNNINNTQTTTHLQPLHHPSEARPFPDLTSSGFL
# test-protocol: CYP1A1-bla LS-180 AhR agonist assay
measured-property: pEC50
// pEC50 here means minus log10 of the molar concentration (mol/L)

Req: So what's the measured pEC50 for this one? CC(C)c1c(O)cc(-c2cc3ccccc3cn2)cc1O
Resp: 7.80

* * *

# test-protocol: metabolic stability in liver microsomes, dog
# Type: in vitro ADME
# reported-conditions: dog liver microsomes, 0.5 μM; read-out: Scaled CLint, mic
measured-property: CLint scaled at 0.5 μM (mL/min/kg)
Numeric only. Scale: mL/min/kg

Req: So what's the measured CLint scaled at 0.5 μM for this one? CC(C)c1c(O)cc(-c2cc3ccccc3cn2)cc1O
Resp: 51.7

* * *

# Test system: Human Plasma Proteins
# test-protocol: plasma protein binding by Rapid Equilibrium Dialysis, human
# Type: in vitro ADME
measured-property: recovery at 2 μM
Be sure to follow the number with its unit.

Req: So what's the measured recovery at 2 μM for this one? CC(C)c1c(O)cc(-c2cc3ccccc3cn2)cc1O
Resp: 102%

* * *

# test-protocol: metabolic stability in hepatocytes, minipig
# Format: in vitro ADME
# reported-conditions: minipig hepatocytes, 0.5 μM; read-out: Scaled CLint, hep
measured-property: CLint scaled at 0.5 μM
Be sure to follow the number with its unit.

Req: So what's the measured CLint scaled at 0.5 μM for this one? CC(C)c1c(O)cc(-c2cc3ccccc3cn2)cc1O
Resp: 105 mL/min/kg

* * *

# test-protocol: blood-to-plasma ratio and blood cell association, minipig
# Type: in vitro ADME
# reported-conditions: blood, read-out: Blood-to-plasma Ratio Replicate
measured-property: blood plasma ratio at 1 μM
Output spec: single numeric token, no unit.

Req: So what's the measured blood plasma ratio at 1 μM for this one? CC(C)c1c(O)cc(-c2cc3ccccc3cn2)cc1O
Resp: 1.21
